Reported apparent KD of MS2 coat protein values are given for each entry in this list.
Tested on: MS2 coat protein
Experiment: apparent KD of MS2 coat protein; designed switch direction (-1 OFF switch, 1 ON switch): -1; higher = weaker reporter binding
Details: input ligand: none
Expressed in nM, but write only the number.

Known apparent KD of MS2 coat protein results, listed for orientation:
{"columns": ["input sequence", "assayed system", "apparent KD of MS2 coat protein [nM]"],
 "data": [
  ["CAUGAUUGGCGAGGAUAUUGAUCUAGUUGGCGACGAGAAGGCGCCUGUCACAUGAGGAUCACCCAUGUGAGUCUGGUGGAUGAG [Ex NG1 #87] (Eterna round: R96, puzzle: Exclusion NG 1)", "MS2 coat protein", 20.4],
  ["GCAGAAAGUGUAGGAUAUAUAAAUUAGCGGAAACGCAAUACAUGAGGAUCACCCAUGUUUCCUCAAUAGAAGGGCAAAAGCUGC [EXNG2 V2 e] (Eterna round: R96, puzzle: Exclusion NG 2)", "MS2 coat protein", 79.8],
  ["UCCUCACAUGAGGAUCACCCAUGUUAGGAUAUUUAAUAGCGCGAAAGACAGUUCUGUAAGAGAAGGAACUGGGC [Edarti] (Eterna round: R97, puzzle: Exclusion 1)", "MS2 coat protein", 15],
  ["AGUUGGCGAGGAUAUACAUGAGGAUCACCCAUGUAAAAAAAAAAAAAAAAAACUUCAUGUAGAAGGCGCUGACA [Starry Exclusion 3.4 (biggestlegoheroicafanever round 1 mod)] (Eterna round: R96, puzzle: Exclusion 3)", "MS2 coat protein", 373]
]}

# evaluate next
Challenge: Which apparent KD of MS2 coat protein value belongs to UAUUCACAUGAGGAUCACCCAUGUCAGGAUAUAGUCGAUAUAUGGAAACAUAUAUCGACUAGAAGGGACUAGCG [Jieuxxlusion 12 - Jieux - Exclusion 1] (Eterna round: R97, puzzle: Exclusion 1) ?
Response given: 47.4

---

Reported apparent KD of MS2 coat protein values are given for each entry in this list.
System: MS2 coat protein
Test: apparent KD of MS2 coat protein; higher = weaker reporter binding
Conditions: Eterna round: R107; input ligand: tryptophan 2.4 mM
Expressed in nM, but write only the number.

Known apparent KD of MS2 coat protein results, listed for orientation:
{"columns": ["input sequence", "apparent KD of MS2 coat protein / nM"],
 "data": [
  ["GGUACAUGAGGAUCACCCAUGUAUGCGAGCCGAGGACCGGUACGGCCGCCACUCGCUUAACAUGAGGAUCACCCAUGUUUCUCGG [SSTA DOUBLE!!! :-D #15]", 108],
  ["GUAACACAUGAGGAUCACCCAUGUUCCGAUACCAGUAUUGAAGAUUACCCUUGGCAGCGGGUAGGUCGGAGUGGACGGCCCGAGC [theeternabot_sameState_MS2_Theo_A_8]", 23.7],
  ["GUAUGGAAACAUACUAGGGUAUCAUGAGAUACCAGUACAGAAAUGUACCCUUGGCAGCUCUAGCAUACAUGAGGAUCACCCAUGU [Ex Theophylline A 6]", 12]
]}

Challenge: Which apparent KD of MS2 coat protein value belongs to CAUCAUGGGCUUGGACAAAUUGUGCUUGAUACCAGAAAUCACCGGUUCCCUUGGCAGCAACCCACAUGAGGAUCACCCAUGUGGA [theeternabot_exclusion_MS2_Theo_A_4] ?
Response given: 23

Challenge: Which apparent KD of MS2 coat protein value belongs to CGGUAACCACAUGAGGAUCACCCAUGUGAAGGAGCGGCGAAUAAGCCAGGUAGGUCGCGCAUGAAUAAAUCAUGUUGGUGCCGAA [XArg-A 16 NuPack] ?
Response given: 31

Challenge: Which apparent KD of MS2 coat protein value belongs to CUAUAAUAUAGAAGGAGCGUCGAAAAUGGGUAAACAUGAGGAUCACCCAUGUAAAGGGAACGACAGGUAGGUCGCUAUAUUAUAG [AstromonsSSArgB#12] ?
Response given: 223

---

Reported apparent KD of K4 kissing-loop reporter values are given for each entry in this list.
Tested on: K4 kissing-loop RNA reporter;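 further: bound reporter read as fluorescence of individual clusters on recovered sequencing chips by microscopy, with normalized cluster intensities fitted with a binding model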
Assay: apparent KD of K4 kissing-loop reporter; higher = weaker reporter binding
Settings: Eterna round: R107; input ligand: none
Expressed in nM, but write only the number.

{"columns": ["input sequence", "assayed system", "test readout", "value"],
 "data": [
  ["GCAGUGAUGUUGCGCGGGUACGGUGGAGUGCGAGGACCGGUACGGCCGCCACUCGUACGGAACUGGCUAAUAUAUGGAUAGGUGA [VI]", "K4 kissing-loop RNA reporter", "apparent KD of K4 kissing-loop reporter", 383],
  ["AGGACUCUUGUGGGUACGCAUCUAGCCGAUACCAGACUUCCAUAUGUCCCUUGGCAGCGGCAGUGAUGUUGUCGUUACGCCAUCA [theeternabot_exclusion_KL_Theo_A_34]", "K4 kissing-loop RNA reporter", "apparent KD of K4 kissing-loop reporter", 147],
  ["AGUGGACAUGUCUAGAGUGAUGUUCUGGAUACCAGACACGAAAGUGUCCCUUGGCAGCCGGAGUGAUGUUCUGGAGUUCACUAAA [Omei KL Theo A Exc B v8]", "K4 kissing-loop RNA reporter", "apparent KD of K4 kissing-loop reporter", 550]
]}

Challenge: Which apparent KD of K4 kissing-loop reporter value belongs to CUUACCCAUCGGAUGGAUCAACUGCACACGAAGGAUAUACACACGGGUAGAAGGUCGGGAUUCCAGUGAUGUUGGAUGGUACGAC [theeternabot_exclusion_KL_FMN_A_29] ?
Response given: 91.3

Challenge: Which apparent KD of K4 kissing-loop reporter value belongs to CUUGAUCGAGGAAGGAGCGGGCCGUCAUUGAGCGCAGUGAUGUUGCGGUCGACUAGUCGAGCCCAGGUAGGUCGCCUGGAGUAAG [Xeveis] ?
Response given: 173

Challenge: Which apparent KD of K4 kissing-loop reporter value belongs to UGACAUUGCUCAGAUACCAGUCAUGAGGAUCACCCAUGGGCCAAAACGUACUAAAUAAAUGACCCUUGGCAGCUGAGCAAUGUCU [TheoBX 13] ?
Response given: 37.7

Challenge: Which apparent KD of K4 kissing-loop reporter value belongs to GUAGGAUGAGGAGGAGGAUGAAUUACUGAAGGAGCGCAUAUUAAUGCAGGUAGGUCGCGGUAAAGAAGUAUAGUGAUGUUAUAUA [SSArgA.H] ?
Response given: 589

Challenge: Which apparent KD of K4 kissing-loop reporter value belongs to AGUGUUAGGUUAGAUACCAGCCGUCCGUGGAUAACCCUCGGACCGCCAGUGAUGUUGGCAGGCCCUUGGCAGCUAACAGAACAGA [Beriisa] ?
Response given: 250

Challenge: Which apparent KD of K4 kissing-loop reporter value belongs to GCCAGAGCGCGAAGGAGCGCCGUGACAGGUUGCUGCCGUGGGCAGUGAUGUUGCUCAGUCCGGCAGGUAGGUCGCGUGCUCUGGC ?
Response given: 548

Challenge: Which apparent KD of K4 kissing-loop reporter value belongs to AUGGUUGUCGUAGGAUAUGUAGGAUAUUCCUAUAGCAGUGAUGUUGCUAAUAUCAAUGGAAGAAGGACAGAAGGACGAUAACCAC [KL-SSFMN-B3 #analogue #DoubleAptamer] ?
Response given: 113

Challenge: Which apparent KD of K4 kissing-loop reporter value belongs to UGACAUUGCUCAGAUACCAGACAUGAGCAUCAGCCAUGUGCCAAAUACGUACAAAUAAAUGUCCCUUGGCAGCUGAGCAAUGUCU [TheoBX 12] ?
Response given: 37.5

Challenge: Which apparent KD of K4 kissing-loop reporter value belongs to UACAAACGUAGUGAUGUUACGUACUCUGAUACCAGACAAGUGUAAGUCCCUUGGCAGCAGUCAUUUUGCUUAUUAUUUUCUCAAA [JR_ExcTheophyA_Sub019] ?
Response given: 74.1

---

Test system: MS2 coat protein
Assay: apparent KD of MS2 coat protein; higher = weaker reporter binding
Details: Eterna round: R107; input ligand: theophylline 20 uM
test readout: apparent KD of MS2 coat protein (nM)
Expressed in nM, but write only the number.

{"columns": ["input sequence", "assayed system", "result units", "apparent KD of MS2 coat protein"],
 "data": [
  ["ACAUGAGGAUCACCCAUGUACAUGACGGAAGGAGCGUGCAAAAGCACAGGUAGGUCGCCGAUCUACAUAUUGGGUAUUAUAUUUU [#29 Exclusion - Arginine A]", "MS2 coat protein", "nM", 35.7]
]}

# evaluate next
Challenge: Which apparent KD of MS2 coat protein value belongs to UGUCAGCGAAAGUUGACAUGUCUUACCGGUCGAGGACCGGUACGGCCGCCACUCGAUCUCUCGCACAUGAGGAUCACCCAUGUCG [SS Tryp A #17] ?
Response given: 15.4

---

Tested on: MS2 coat protein
Test: apparent KD of MS2 coat protein; designed switch direction (-1 OFF switch, 1 ON switch): -1; higher = weaker reporter binding
Details: input ligand: none
Everything with apparent KD of MS2 coat protein lower than 0.5 µM is false (0); everything else, including exactly 0.5 µM, is true (1).

See these solved cases before continuing.
{"columns": ["input sequence", "qualitative label"],
 "data": [
  ["CUAGCGAUUGUAGGAUAUCGGACUGUUUCAGUCUGAGAAGGACAUGAGGAUCACCCAUGUGAAGGAUCGUGAGAUCCACGCUAG [JL ENG1 3.79] (Eterna round: R96, puzzle: Exclusion NG 1)", "false (0)"],
  ["AUAAUGUGAGGAUAUCGAGACUACUGCUGCGGCAGUAGUCUCGAGAAGGCACAUGAGGAUCACCCAUGUGAUCA [E4/2-A3] (Eterna round: R97, puzzle: Exclusion 4)", "true (1)"]
]}

Challenge: Given the entry CAGUACUGAGGAUAUACAUGAGGAUCACCCAUGUGUUCCAGCUAGGAAACUAGCGAAAGUAGAAGGCAGUACUG [salish99_ex3_r3_068] (Eterna round: R96, puzzle: Exclusion 3) , answer whether its apparent KD of MS2 coat protein meets or surpasses 0.5 µM.
Response given: false (0)

Challenge: Given the entry GAAUUAAUUAAUUAAUAAUACAUGAGGAUCACCCAUGUAGAUCCUACAUACAAGCUUUGUAGCUCGUCUUAUAAUUA [Stov1/3-A2] (Eterna round: R97, puzzle: Sensor, turn-off variant 1) , answer whether its apparent KD of MS2 coat protein meets or surpasses 0.5 µM.
Response given: false (0)
